Biological target: Metabotropic glutamate receptor 5 (Rattus norvegicus)
Sequence (P31424 whole entry): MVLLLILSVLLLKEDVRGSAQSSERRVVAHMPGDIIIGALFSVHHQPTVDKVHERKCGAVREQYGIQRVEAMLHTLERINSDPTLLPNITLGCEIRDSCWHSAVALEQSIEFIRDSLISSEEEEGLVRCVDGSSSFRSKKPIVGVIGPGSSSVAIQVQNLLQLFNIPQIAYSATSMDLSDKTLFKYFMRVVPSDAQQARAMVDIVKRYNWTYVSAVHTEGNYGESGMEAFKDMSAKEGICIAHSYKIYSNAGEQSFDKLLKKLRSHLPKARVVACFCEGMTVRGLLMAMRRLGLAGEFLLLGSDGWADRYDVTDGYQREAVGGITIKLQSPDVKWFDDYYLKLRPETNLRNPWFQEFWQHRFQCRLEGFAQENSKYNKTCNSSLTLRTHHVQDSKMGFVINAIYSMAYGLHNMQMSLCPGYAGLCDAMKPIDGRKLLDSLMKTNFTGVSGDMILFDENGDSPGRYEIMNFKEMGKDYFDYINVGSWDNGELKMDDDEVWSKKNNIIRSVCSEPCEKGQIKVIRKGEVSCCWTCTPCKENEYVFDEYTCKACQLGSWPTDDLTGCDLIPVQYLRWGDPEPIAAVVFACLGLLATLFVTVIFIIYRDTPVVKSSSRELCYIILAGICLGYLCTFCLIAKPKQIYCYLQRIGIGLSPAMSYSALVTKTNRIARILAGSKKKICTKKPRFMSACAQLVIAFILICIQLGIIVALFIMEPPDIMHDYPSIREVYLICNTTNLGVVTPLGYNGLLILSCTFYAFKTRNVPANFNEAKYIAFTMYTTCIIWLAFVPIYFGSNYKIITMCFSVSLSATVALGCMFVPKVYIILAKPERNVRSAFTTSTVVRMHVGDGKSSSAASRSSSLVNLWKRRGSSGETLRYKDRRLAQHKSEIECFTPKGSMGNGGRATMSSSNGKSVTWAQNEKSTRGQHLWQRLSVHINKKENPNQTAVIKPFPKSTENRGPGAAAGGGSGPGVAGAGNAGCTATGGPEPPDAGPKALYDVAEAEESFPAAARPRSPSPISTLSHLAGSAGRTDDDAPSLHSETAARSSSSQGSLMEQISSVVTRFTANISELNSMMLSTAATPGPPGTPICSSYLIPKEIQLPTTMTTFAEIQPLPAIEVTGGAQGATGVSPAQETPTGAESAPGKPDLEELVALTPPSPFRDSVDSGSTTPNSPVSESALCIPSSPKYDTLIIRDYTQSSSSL
Assay: Modulation of rat mGlu5 receptor assessed as calcium mobilization by cell based fluorescence assay
recorded.endpoint: EC50

C[C@@H]1CN(c2ccc(F)cc2)C(=O)c2cc(COc3ncccc3C(F)(F)F)nn21
> 30 µM

# value of EC50, Metabotropic glutamate receptor 5 (Rattus norvegicus), item C[C@@H]1CN(c2cccnc2)C(=O)c2cc(COc3ccc(Cl)cn3)nn21 = > 30 µM

So the reported EC50 for C[C@@H]1CN(c2cc(F)ccc2F)C(=O)c2cc(COc3ccc(F)cn3)nn21 , on Metabotropic glutamate receptor 5 (Rattus norvegicus), turned out to be > 10 µM
